All figures here come from PubChem BioAssay (NCI).

- ASSAY PROCEDURE: NCI Yeast Anticancer Drug Screen. Data for the rad50 strain (AID 155);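 note: 0% = growth of vehicle-only cultures of the same strain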
- TEST SETTINGS: S. cerevisiae rad50 strain growth inhibition; at 50.0 µM (retest, dose inferred, filed as 5.0)
The panel holds about 79,000 compounds, 15% with a hit somewhere; the sample as a whole holds those more often. Active and inactive are the calls of the source. Cut-off read from the data, not from the text of the source: active = growth inhibition above about 70%; inactive = the rest.
Allowed answers: active, inactive

Q: Name the outcome recorded for CCCCCCCCCC[Se]C#N in the assay.
Result: active

Q: Name the outcome recorded for CCC[CH2][Sn][Cl] in the assay.
Result: active

Q: Name the outcome recorded for [Cl][Hg][Cl] in the assay.
Result: active

Q: Name the outcome recorded for CC(C)CCCC(C)CCC1C(=O)NC(=O)NC1=O (stereo not drawn) in the assay.
Result: inactive

Q: Name the outcome recorded for O=[N+]([O-])c1cc(C(F)(F)F)cc2n[se]nc12 in the assay.
Result: active

Q: Name the outcome recorded for Br[Se]c1ccccn1 in the assay.
Result: active

Q: Name the outcome recorded for CCCCCCCCC(=O)[O][Hg][c]1ccccc1 in the assay.
Result: active

Q: Name the outcome recorded for Cn1cc(/C=C/[N+](=O)[O-])c2ccccc21 in the assay.
Result: active

###

- ASSAY PROCEDURE: NCI Yeast Anticancer Drug Screen. Data for the cln2 rad14 strain (AID 165);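 note: 0% = growth equal to vehicle treated cultures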
- TEST SETTINGS: S. cerevisiae cln2 rad14 strain, at 5.0 µM (retest, dose inferred, filed as 0.5), hits give high values
- Experimental: Growth inhibition of yeast strains with defined genetic alterations is measured as a screen for potential anti-cancer activity. Selected strains with alterations in DNA damage repair or cell cycle control were exposed to compounds and growth inhibition was measured relative to vehicle treated controls. The strain used in this assay is cln2 rad14
This is part of a sample that, as a whole, favours compounds with a hit. Of some 79,000 tested, about 15% had one in any assay.
Please provide measured growth inhibition for the entries that follow.
Kindly answer with a numeric value in %, unit omitted.

# compound CC[C@H](C)c1occ2c(O)c(C(=O)O)c(=O)cc-2c1C ; its growth inhibition = 31

# compound Cc1cn(CC2C=CC(CS[As](C)C)O2)c(=O)[nH]c1=O (stereo not drawn) ; its growth inhibition = 0

# compound CCCCN(CCCC)CCc1ccc(OC(=O)c2ccc(N)cc2)cc1 ; its growth inhibition = 42

# compound CC(=O)[CH-]C(=O)c1ccccc1.CC(=O)[CH-]C(=O)c1ccccc1.C[C@]12CCC(=O)C=C1CC[C@@H]1C2CC[C@@]2(C)C1CC[C@@H]2[O-].C[C@]12CCC(=O)C=C1CC[C@@H]1C2CC[C@@]2(C)C1CC[C@@H]2[O-].Cl.[Ti+4] (stereo partly drawn) ; its growth inhibition = 26

# compound O=C(c1ccccc1)C1C(c2ccccc2[N+](=O)[O-])N1C1CCCCC1 (stereo not drawn) ; its growth inhibition = -18

# compound CC[C@]1(O)CC(OC2CC(N(C)C)C(O)C(C)O2)c2c(cc3c(c2O)C(=O)c2c(O)cccc2C3=O)[C@@H]1C(=O)OC (stereo partly drawn) ; its growth inhibition = 15

# compound O=C1c2ccc3ccccc3c2CCC1N1CCCCC1 (stereo not drawn) ; its growth inhibition = 7

# compound COP(=S)(OC)N(C)C(=O)Oc1cccc2ccccc12 ; its growth inhibition = 0

# compound CNC(=O)N1CN(c2ccccc2)C2(CCN(CCCC(=O)c3ccc(F)cc3)CC2)C1=O ; its growth inhibition = 5

# compound CN1CC(Br)(Br)C(=O)N(C)C1=O ; its growth inhibition = -4

# compound [Cl][Pt+2][Cl].[NH-]C1CCCC2CCC[N-]C12 (stereo not drawn) ; its growth inhibition = 50

# compound N#C[S-].[Nd+3].c1ccc(-c2ccccn2)nc1.c1ccc(-c2ccccn2)nc1.c1ccc(-c2ccccn2)nc1 ; its growth inhibition = 33

# compound c1ccc(C[As+](c2ccccc2)(c2ccccc2)c2ccccc2)cc1 ; its growth inhibition = 1

# compound ClCCN(CCCl)c1ccc(CN2CCCN(Cc3ccc(N(CCCl)CCCl)cc3Cl)C2c2ccncc2)c(Cl)c1 ; its growth inhibition = -5

# compound O=C(O)C(O)(c1ccccc1)C1(O)CCCCC1 (stereo not drawn) ; its growth inhibition = -54

# compound COC1=CC2=CCC3C(CCC4(C)C3CCC4(C)OC(C)=O)C2(C)CC1 (stereo not drawn) ; its growth inhibition = 0

# compound O=c1oc2ccccc2c(O)c1C(c1ccc(OCc2ccccc2)cc1)c1c(O)c2ccccc2oc1=O ; its growth inhibition = -3

# compound [Ni+2].[O-][Cl+3]([O-])([O-])O.c1ccc([PH+](CC[PH+](c2ccccc2)c2ccccc2)c2ccccc2)cc1.c1ccc([PH+](CC[PH+](c2ccccc2)c2ccccc2)c2ccccc2)cc1 ; its growth inhibition = 3

# compound CC[C@](O)(C(=O)O)c1cc2n(c(=O)c1CO)Cc1cc3ccccc3nc1-2 ; its growth inhibition = 66

# compound c1cc2c(c(NC3=NCCN3)c1)CCCC2 ; its growth inhibition = -21

# compound CCCCC1CCCCCCc2[nH]c(/C=C3\N=C(c4ccc[nH]4)C=C3OC)cc21 (stereo not drawn) ; its growth inhibition = 39

# compound Nc1nc(N)c2c(Cl)c(CNc3ccc(C(=O)NC(CC(=O)O)C(=O)O)cc3)ccc2n1 (stereo not drawn) ; its growth inhibition = 20

# compound Cc1ccc(P(=O)(c2ccc(C)cc2)c2ccc(C)cc2)cc1.Cc1ccc(P(=O)(c2ccc(C)cc2)c2ccc(C)cc2)cc1.[Cl][Sn]([Cl])([Cl])[Cl] ; its growth inhibition = 4

# compound Cc1ccc2ccccc2c1NC1=NCCO1 ; its growth inhibition = 17

# compound COc1ccc2c(c1O)C13CCN(C)C(C2)C12C=CC(=O)C3c1c(O)ccc(O)c12 (stereo not drawn) ; its growth inhibition = -2

# compound CC(=O)C(Br)C(C)=O.CC(=O)C(Br)C(C)=O.CC(=O)C(Br)C(C)=O.[Rh] ; its growth inhibition = 4

# compound COC(=O)CCCCCCCCC[CH2][Hg][Cl] ; its growth inhibition = 99

# compound C/C(=N\N)C(CN1CCCCC1)C(c1ccccc1)c1c(O)c2ccccc2oc1=O (stereo not drawn) ; its growth inhibition = 4

# compound CS(=O)(=O)OCCN(CCOS(C)(=O)=O)c1ccc(C=O)cc1 ; its growth inhibition = 8

# compound CC(CCS(C)(=O)=O)([N+](=O)[O-])[N+](=O)[O-] ; its growth inhibition = 14

# compound C=C[C@H]1CN2CC[C@H]1C[C@@H]2[C@@H](O)c1ccnc2ccccc12 ; its growth inhibition = 44

# compound CCCCCCC1CCC2CCCC(C)N12 (stereo not drawn) ; its growth inhibition = 14

# compound O=c1oc2ccccc2c(O)c1C(c1ccc2ccccc2c1)c1c(O)c2ccccc2oc1=O ; its growth inhibition = 19

# compound C/C(=N\O)C(CN(C)C)C(c1ccccc1)c1c(O)c2ccccc2oc1=O (stereo not drawn) ; its growth inhibition = 4

# compound CC(=O)OC1C2(CC3N4C(=O)C5(CO)SSC4(CC31O)C(=O)N5C)OC(C)C(C)(C)C2=O (stereo not drawn) ; its growth inhibition = 64

# compound CC[N+](C)(CC)CCNC(=O)C(O)(c1ccccc1)c1ccccc1 ; its growth inhibition = -2

# compound Cc1ccc(C(Cc2ccc(N3C(N)=NC(N)=NC3(C)C)cc2)C(=O)Nc2ccc(S(=O)(=O)F)cc2)cc1 (stereo not drawn) ; its growth inhibition = 7

# compound COc1ccc2c3c1OC1C(=O)C4CC5(c6c(O)ccc(O)c64)C(C2)N(C)CCC315 (stereo not drawn) ; its growth inhibition = -14
